Parameter: Bliss excess. Scope: all listed entries.
Tested on: MHH-PREB-1 (B-Cell Non-Hodgkin's Lymphoma)
Test: Bliss excess, mean over the matrix (fraction); higher = more synergy;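 further: after 72 h of two-drug dosing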

# Compound, Bliss excess
rows = [
    ("CN(C)CCCOc1ccc(-c2ccc3ncc4c(c3c2)n(C2CCOCC2)c(=O)n4C)cn1 [AZD0156] + O=C(c1cc(Cc2n[nH]c(=O)c3ccccc23)ccc1F)N1CCN(C(=O)C2CC2)CC1 [Olaparib] (first compound max 3 µM, partner max 3 µM)", 0.0175),
    ("CC1(C)CCC(CN2CCN(c3ccc(C(=O)NS(=O)(=O)c4ccc(NCC5CCOCC5)c([N+](=O)[O-])c4)c(Oc4cnc5[nH]ccc5c4)c3)CC2)=C(c2ccc(Cl)cc2)C1 [Venetoclax] + COc1cc(Nc2ncc3c(n2)-c2ccc(Cl)cc2C(c2c(F)cccc2OC)=NC3)ccc1C(=O)O [Alisertib] (first compound max 1 µM, 7x7, partner max 10 µM)", -0.03),
    ("COc1cccc(OCCCN)c1-c1cc(Nc2cnc(C#N)cn2)n[nH]1 [Prexasertib] + Cc1cc2ncnn2cc1Nc1ncc2c(n1)n(C1CCOCC1)c(=O)n2C [AZD7648] (first compound max 1 µM, 7x7, partner max 10 µM)", -0.0322),
]

----------
Tested on: SW1116 (Colorectal Carcinoma)
Assay: Bliss excess, mean over the matrix (fraction); higher = more synergy
Values of Bliss excess greater than or equal to -0.02 map to Yes; values below map to No.

# Molecule, Answer label
measured = [
    ("CS(=O)(=O)CCNCc1ccc(-c2ccc3ncnc(Nc4ccc(OCc5cccc(F)c5)c(Cl)c4)c3c2)o1 [Lapatinib] + C[C@@H](Oc1cc(-c2cnn(C3CCNCC3)c2)cnc1N)c1c(Cl)ccc(F)c1Cl [Crizotinib] (first compound max 10 µM, 7x7, partner max 10 µM)", "Yes"),
    ("Cc1c2c(nn1C)CSCc1cc(n(C)n1)CSc1cc(c3ccccc3c1)OCCCc1c(C(=O)O)n(C)c3c-2c(Cl)ccc13 [AZD5991] + CC(=O)O[C@H]1C(=O)[C@@]2(C)[C@H]([C@H](OC(=O)c3ccccc3)[C@]3(O)C[C@H](OC(=O)[C@H](O)[C@@H](NC(=O)c4ccccc4)c4ccccc4)C(C)=C1C3(C)C)[C@]1(OC(C)=O)CO[C@@H]1C[C@@H]2O [Paclitaxel] (first compound max 1 µM, 7x7, partner max 3 µM)", "No"),
    ("C[C@@H](Oc1cc(-c2cnn(C3CCNCC3)c2)cnc1N)c1c(Cl)ccc(F)c1Cl [Crizotinib] + Cn1cnc2c(F)c(Nc3ccc(Br)cc3Cl)c(C(=O)NOCCO)cc21 [Selumetinib] (first compound max 10 µM, 7x7, partner max 10 µM)", "No"),
    ("CCN(CCO)CCCOc1ccc2c(Nc3cc(CC(=O)Nc4cccc(F)c4)[nH]n3)ncnc2c1 [AZD2811] + C[C@@H]1COCCN1C2=NC(=NC(=C2)C3(CC3)[S@](=N)(=O)C)C4=C5C=CNC5=NC=C4 [AZD6738] (first compound max 1 µM, 7x7, partner max 10 µM)", "No"),
    ("Cc1c2c(nn1C)CSCc1cc(n(C)n1)CSc1cc(c3ccccc3c1)OCCCc1c(C(=O)O)n(C)c3c-2c(Cl)ccc13 [AZD5991] + Cc1cc2ncnn2cc1Nc1ncc2c(n1)n(C1CCOCC1)c(=O)n2C [AZD7648] (first compound max 1 µM, 7x7, partner max 10 µM)", "No"),
    ("CN(C)CCCOc1ccc(-c2ccc3ncc4c(c3c2)n(C2CCOCC2)c(=O)n4C)cn1 [AZD0156] + O=C(c1cc(Cc2n[nH]c(=O)c3ccccc23)ccc1F)N1CCN(C(=O)C2CC2)CC1 [Olaparib] (first compound max 3 µM, partner max 3 µM)", "No"),
    ("CC1(C)CCC(CN2CCN(c3ccc(C(=O)NS(=O)(=O)c4ccc(NCC5CCOCC5)c([N+](=O)[O-])c4)c(Oc4cnc5[nH]ccc5c4)c3)CC2)=C(c2ccc(Cl)cc2)C1 [Venetoclax] + CS(=O)(=O)CCNCc1ccc(-c2ccc3ncnc(Nc4ccc(OCc5cccc(F)c5)c(Cl)c4)c3c2)o1 [Lapatinib] (first compound max 1 µM, 7x7, partner max 10 µM)", "Yes"),
    ("Cc1cc2ncnn2cc1Nc1ncc2c(n1)n(C1CCOCC1)c(=O)n2C [AZD7648] + C=CCn1c(=O)c2cnc(Nc3ccc(N4CCN(C)CC4)cc3)nc2n1-c1cccc(C(C)(C)O)n1 [AZD1775] (first compound max 10 µM, partner max 1 µM)", "Yes"),
    ("C[C@@H](Oc1cc(-c2cnn(C3CCNCC3)c2)cnc1N)c1c(Cl)ccc(F)c1Cl [Crizotinib] + CC1=C(C(=CC=C1)Cl)NC(=O)C2=CN=C(S2)NC3=CC(=NC(=N3)C)N4CCN(CC4)CCO [Dasatinib] (first compound max 10 µM, 7x7, partner max 2 µM)", "Yes"),
    ("NC1(C(=O)N[C@@H](CCO)c2ccc(Cl)cc2)CCN(c2ncnc3[nH]ccc23)CC1 [Capivasertib] + Cn1cnc2c(F)c(Nc3ccc(Br)cc3Cl)c(C(=O)NOCCO)cc21 [Selumetinib] (first compound max 10 µM, 7x7, partner max 10 µM)", "Yes"),
    ("N#Cc1cnc(Nc2cc(NC[C@H]3CNCCO3)c(C(F)(F)F)cn2)cn1 [SRA737] + C=CCn1c(=O)c2cnc(Nc3ccc(N4CCN(C)CC4)cc3)nc2n1-c1cccc(C(C)(C)O)n1 [AZD1775] (first compound max 10 µM, partner max 1 µM)", "Yes"),
    ("C[C@@H](c1ccc2nccn2c1)n1nnc2ncc(-c3cnn(C)c3)nc21 [Savolitinib] + CC1(C)CCC(CN2CCN(c3ccc(C(=O)NS(=O)(=O)c4ccc(NCC5CCOCC5)c([N+](=O)[O-])c4)c(Oc4cnc5[nH]ccc5c4)c3)CC2)=C(c2ccc(Cl)cc2)C1 [Venetoclax] (first compound max 1 µM, 7x7, partner max 1 µM)", "No"),
    ("COc1cc2c(cc1OCCCCCOc1cc3c(cc1OC)C(=O)N1C=C(C)C[C@H]1C=N3)N=C[C@@H]1CC(C)=CN1C2=O [SG3199] + O=C(c1cc(Cc2n[nH]c(=O)c3ccccc23)ccc1F)N1CCN(C(=O)C2CC2)CC1 [Olaparib] (first compound max 0.001 µM, 7x7, partner max 10 µM)", "No"),
]
